Target Of Assay: estrogen receptor (Homo sapiens, UniProt P03372)
Sequence (P03372 whole entry): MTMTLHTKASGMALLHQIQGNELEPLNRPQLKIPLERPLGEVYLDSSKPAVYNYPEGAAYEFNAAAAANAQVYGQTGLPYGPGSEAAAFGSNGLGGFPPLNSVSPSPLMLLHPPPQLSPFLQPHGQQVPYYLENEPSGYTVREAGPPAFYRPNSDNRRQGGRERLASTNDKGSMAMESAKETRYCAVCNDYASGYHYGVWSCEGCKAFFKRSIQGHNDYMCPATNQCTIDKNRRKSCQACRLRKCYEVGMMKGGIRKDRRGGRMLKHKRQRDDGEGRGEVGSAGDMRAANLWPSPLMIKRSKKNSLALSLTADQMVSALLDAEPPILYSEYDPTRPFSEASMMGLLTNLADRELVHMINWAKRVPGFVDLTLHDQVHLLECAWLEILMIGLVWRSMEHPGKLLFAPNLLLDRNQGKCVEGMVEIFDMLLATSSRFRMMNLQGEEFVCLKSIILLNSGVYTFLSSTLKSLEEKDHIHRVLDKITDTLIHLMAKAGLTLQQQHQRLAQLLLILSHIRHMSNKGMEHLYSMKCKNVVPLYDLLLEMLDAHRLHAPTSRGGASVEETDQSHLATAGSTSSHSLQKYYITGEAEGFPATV
pIC50: −log10 of the molar value.

{"Compound": "C[C@H](NC(=O)N(CCCl)N=O)C(=O)Oc1ccc2c(c1)CC[C@@H]1[C@@H]2CC[C@]2(C)C(=O)CC[C@@H]12", "Target Of Assay": "estrogen receptor (Homo sapiens, UniProt P03372)", "pIC50": 6.72}
{"Compound": "C[C@H](NC(=O)N(CCCl)N=O)C(=O)Oc1ccc2c(c1)CC[C@@H]1[C@@H]2CC[C@]2(C)[C@@H](O)CC[C@@H]12", "Target Of Assay": "estrogen receptor (Homo sapiens, UniProt P03372)", "pIC50": 7.30}

###

Experiment Notes: Toxicity of the compounds (LD50)
Format: in vivo
Assay Conditions: in vivo; period of observation: 90 days (printed with the cortisone ester)
LD50 at 2160 h listing for selected compounds.
Parameter: LD50 at 2160 h

{"Compound": "CC(NC(=O)N(CCCl)N=O)C(=O)OCC(=O)C1(O)CCC2C3CCC4=CC(=O)CCC4(C)C3C(=O)CC21C (centres unmarked)", "Value Measured": "220 to 280 mg/kg"}
{"Compound": "C[C@H](NC(=O)N(CCCl)N=O)C(=O)O [CNU alanine, reference compound]", "Value Measured": "40 to 50 mg/kg"}

Where do these numbers come from? They come from patent US4609496A.
